Below: a set of entries, each annotated with reported IC50, inhibition of human classical pathway (hemolysis assay).
Molecular target: T1, human complement C2 (human, UniProt P06681 21-752)
T1 sequence: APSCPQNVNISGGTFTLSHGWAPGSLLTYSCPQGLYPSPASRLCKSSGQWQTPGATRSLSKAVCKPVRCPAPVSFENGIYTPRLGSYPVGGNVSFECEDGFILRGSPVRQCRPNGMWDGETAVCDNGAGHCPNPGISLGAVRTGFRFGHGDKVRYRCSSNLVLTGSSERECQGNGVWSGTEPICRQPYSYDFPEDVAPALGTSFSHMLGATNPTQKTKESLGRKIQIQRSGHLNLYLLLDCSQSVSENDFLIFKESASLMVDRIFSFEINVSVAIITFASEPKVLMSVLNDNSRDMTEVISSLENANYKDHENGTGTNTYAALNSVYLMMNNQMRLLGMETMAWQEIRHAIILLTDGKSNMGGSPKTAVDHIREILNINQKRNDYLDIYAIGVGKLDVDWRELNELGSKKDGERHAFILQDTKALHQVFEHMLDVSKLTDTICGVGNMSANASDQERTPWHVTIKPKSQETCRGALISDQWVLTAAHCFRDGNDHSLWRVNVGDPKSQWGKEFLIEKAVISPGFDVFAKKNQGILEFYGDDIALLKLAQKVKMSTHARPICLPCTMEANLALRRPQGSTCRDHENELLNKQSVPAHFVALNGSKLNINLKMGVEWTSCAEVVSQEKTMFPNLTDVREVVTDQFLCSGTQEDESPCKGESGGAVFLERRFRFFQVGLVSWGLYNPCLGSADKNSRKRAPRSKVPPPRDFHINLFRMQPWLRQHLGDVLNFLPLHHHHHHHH
Assay: cell-based or functional assay
// return numeric value only (unit: nM, not printed)

Known IC50, inhibition of human classical pathway (hemolysis assay) results, listed for orientation:
RF16-191 (antibody, V domains shown, Human antibody from a phage display library) VH: EVQLLESGGGLVQPGGSLRLSCAASGFTFSKYWMGWVRQATGKGLEWVSSIYSSGGWTYYADSVKGRFTISRDNSKNTLYLQMNSLRAEDTAVYYCARRPRSFSGSYYRAFDIWGQGTMVTVSS VL: DIQMTQSPSSLSASVGDRVTITCRASQSITDYLNWYQQRPGKAPKLLIYAASSLQSGVPSRFSGSGSGTDFTLTISGLQPEDFATYYCQQSYSSSITFGQGTRLDLKR    29.4
RF16-214G (antibody, V domains shown) VH: EVQLLESGGGLVQPGGSLRLSCAASGFTFSWYQMMWVRQAPGKGLEWVSRIYPSGGGTAYADSVKGRFTISRDNSKNTLYLQMNSLRAEDTAVYYCARDAGYGDNWGQGTLVTVSS VL: SYELTQPPSVSVSPGQTASITCSGDKLGEKYASWYQQKPGQSPVLVIYQDRKRPSGIPERFSGSNSGNTATLTISGTQAMDEADYYCQAWDTRAVVFGGGTKLTVLG    337
RF16-242 (antibody, V domains shown) VH: EVQLLQSGAEVKKPGESLKISCKGSGYSFTSYWIGWVRQMPGKGLEWMGIIYPGDSDTRYSPSFQGQVTISADKSISTAYLQWSSLKASDTAMYYCARRGHYGDYFDYWGQGTLVTVSS VL: SYELTQPPSVSVSPGQTARITCSGDALPKKYAYWYHQKSGQAPVLVIYEDRRRPSEIPERFSGSSSGTMATLTITGAQVEDEGVYFCYSRDRAGNQRVFGGGTQLTVLG    55.4
RF16-203 (antibody, V domains shown, Human antibody from a phage display library) VH: EVQLLESGGGLVQPGGSLRLSCAASGFTFSRYYMMWVRQAPGKGLEWVSSIGSSGGTTNYADSVKGRFTISRDNSKNTLYLQMNSLRAEDTATYYCAKGGMVLGVVNIWGQGTLVTVSS VL: QSALTQPPSVSVSPGQTATITCSGDKLGEKYVSWYQQKPGQSPVVVIFQDIKRPSGIPERFSGSNSGNTATLTISGTQAMDEADYYCQTWGTGGIQVFGGGTKLTVLR    42
RF16-242G (antibody, V domains shown, Germlined version of RF16-242) VH: EVQLVQSGAEVKKPGESLKISCKGSGYSFTSYWIGWVRQMPGKGLEWMGIIYPGDSDTRYSPSFQGQVTISADKSISTAYLQWSSLKASDTAMYYCARRGHYGDYFDYWGQGTLVTVSS VL: SYELTQPPSVSVSPGQTARITCSGDALPKKYAYWYQQKSGQAPVLVIYEDRRRPSGIPERFSGSSSGTMATLTISGAQVEDEADYYCYSRDRAGNQRVFGGGTQLTVLG    80.3

RF16-214 (antibody, V domains shown) VH: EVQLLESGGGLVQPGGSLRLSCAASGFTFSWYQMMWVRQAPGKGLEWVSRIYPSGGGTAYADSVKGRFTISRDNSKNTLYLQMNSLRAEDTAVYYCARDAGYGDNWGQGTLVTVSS VL: QSALTQPPSVSVSPGQTASITCSGDKLGEKYASWYQQKAGQSPVMVIYQDRKRPSGIPERFSGSNSGNTATLTISGTQAMDEADYYCQAWDTRAVVFGGGTKLTVLG has a reported IC50, inhibition of human classical pathway (hemolysis assay) of 241

RF16-191G (antibody, V domains shown) VH: EVQLLESGGGLVQPGGSLRLSCAASGFTFSKYWMGWVRQAPGKGLEWVSSIYSSGGWTYYADSVKGRFTISRDNSKNTLYLQMNSLRAEDTAVYYCARRPRSFSGSYYRAFDIWGQGTMVTVSS VL: DIQMTQSPSSLSASVGDRVTITCRASQSITDYLNWYQQKPGKAPKLLIYAASSLQSGVPSRFSGSGSGTDFTLTISSLQPEDFATYYCQQSYSSSITFGQGTRLDLKR has a reported IC50, inhibition of human classical pathway (hemolysis assay) of 94
